System: SK-ES-1
Test: IC50 studies, monolayer cell culture assay (CellTiter-Glo cell viability, 72 hours)
Type: cell-based
Conditions: SK-ES-1, sarcoma, Test II, read-out: IC50 Test (II) Avg
observable: IC50 (µM)
Quick note: give the figure in µM, leave out the unit.

Query: Entry "CC1(C)CCC(C)(C)c2cc(NC(=O)c3ccc(C(=O)O)cc3)ccc21.O=C(O)c1cc(O)c(O)c(O)c1" : reported IC50 = ?
Reply: 5.94

* * *

Tested on: H460
Assay: IC50 studies, monolayer cell culture assay (CellTiter-Glo cell viability, 72 hours)
Format: cell-based
Conditions: H460, lung, Test I, read-out: IC50 Test(I) Avg
pIC50 listing for selected compounds.
Quick note: pIC50 means taking -log10 of the concentration in moles per liter.

Please review the following examples before continuing.
- compound: "CC1(C)CCC(C)(C)c2cc(NC(=O)c3ccc(C(=O)O)cc3)ccc21.NC(=O)c1cccnc1 [TAM-nicotinamide]"
  pIC50: 4.25
- compound: "CC1(C)CCC(C)(C)c2cc(NC(=O)c3ccc(C(=O)O)cc3)ccc21.O=C(O)c1ccc(-c2ccccc2)cc1"
  pIC50: 4.25
- compound: "CC1(C)CCC(C)(C)c2cc(NC(=O)c3ccc(C(=O)O)cc3)ccc21.O=C(O)c1cc(O)c(O)c(O)c1"
  pIC50: 4.38

Would you kindly look at the next entry?
Query: Entry "CC1(C)CCC(C)(C)c2cc(NC(=O)c3ccc(C(=O)O)cc3)ccc21.O=C(O)c1ccccc1-c1ccccc1C(=O)O" : reported pIC50 = ?
Reply: 4.46
